Assembled from different publications: IC50 for CTP synthase 1 (Homo sapiens, UniProt P17812).
measured.endpoint: IC50

- compound: "CCOc1cncc(-c2cnc(C(=O)NC(CCN3CC[C@@H](F)C3)c3cc(NS(=O)(=O)C4CC4)ccn3)s2)n1 (stereo partly drawn)"
  subject.of.test: "CTP synthase 1 (Homo sapiens, UniProt P17812)"
  measured.endpoint: "IC50"
  recorded.measurement: "< 100 nM"
- compound: "CCOc1cncc(-c2cnc(C(=O)N[C@@H](c3cc(NS(=O)(=O)C4CC4)ccn3)[C@H]3C[C@@H](N(C)C)C3)s2)n1 (single isomer, unassigned)"
  subject.of.test: "CTP synthase 1 (Homo sapiens, UniProt P17812)"
  measured.endpoint: "IC50"
  recorded.measurement: "< 100 nM"
- compound: "CC[C@H](NC(=O)c1ncc(-c2cnn3ccc(Cl)cc23)s1)c1cc(NS(=O)(=O)C2CC2)ccn1"
  subject.of.test: "CTP synthase 1 (Homo sapiens, UniProt P17812)"
  measured.endpoint: "IC50"
  recorded.measurement: "< 100 nM"
- compound: "CCOC[C@H](NC(=O)c1ncc(-c2cncc(OCC)n2)s1)c1cc(NS(=O)(=O)C2CC2)ccn1"
  subject.of.test: "CTP synthase 1 (Homo sapiens, UniProt P17812)"
  measured.endpoint: "IC50"
  recorded.measurement: "< 100 nM"
- compound: "CCC(CC)(NC(=O)c1ccc(-c2cnccn2)cc1)c1csc(NS(=O)(=O)C2CC2)n1"
  subject.of.test: "CTP synthase 1 (Homo sapiens, UniProt P17812)"
  measured.endpoint: "IC50"
  recorded.measurement: "100 to 1000 nM"
- compound: "CCOc1cncc(-c2ccc(NC(=O)Cc3cc(NS(=O)(=O)C4CC4)ccn3)cc2)n1"
  subject.of.test: "CTP synthase 1 (Homo sapiens, UniProt P17812)"
  measured.endpoint: "IC50"
  recorded.measurement: "< 100 nM"
- compound: "CCOc1cncc(-c2cnc(C(=O)N[C@H](CCCN(C)C)c3cc(NS(=O)(=O)C4CC4)ccn3)s2)n1"
  subject.of.test: "CTP synthase 1 (Homo sapiens, UniProt P17812)"
  measured.endpoint: "IC50"
  recorded.measurement: "< 100 nM"
- compound: "CCOc1cncc(-c2ccc(C(=O)NCc3cc(NS(=O)(=O)C4CC4)cnn3)cc2)n1"
  subject.of.test: "CTP synthase 1 (Homo sapiens, UniProt P17812)"
  measured.endpoint: "IC50"
  recorded.measurement: "< 100 nM"
- compound: "O=C(NCc1csc(NS(=O)(=O)C2CC2)n1)c1ccc(-c2ccccc2)cn1"
  subject.of.test: "CTP synthase 1 (Homo sapiens, UniProt P17812)"
  measured.endpoint: "IC50"
  recorded.measurement: "1000 to 10000 nM"
- compound: "CCOc1cncc(-c2ccc(C(=O)NCc3csc(NS(=O)(=O)C4CC4)n3)c(F)c2)n1"
  subject.of.test: "CTP synthase 1 (Homo sapiens, UniProt P17812)"
  measured.endpoint: "IC50"
  recorded.measurement: "< 100 nM"
- compound: "CCOc1cncc(-c2ccc(C(=O)NCc3cncc(NS(=O)(=O)C4CC4)c3)cc2)n1"
  subject.of.test: "CTP synthase 1 (Homo sapiens, UniProt P17812)"
  measured.endpoint: "IC50"
  recorded.measurement: "< 100 nM"
- compound: "CCOc1cncc(-c2ccc(NC(=O)C3(c4cncc(NS(=O)(=O)C5CC5)n4)CCCCC3)nc2)n1"
  subject.of.test: "CTP synthase 1 (Homo sapiens, UniProt P17812)"
  measured.endpoint: "IC50"
  recorded.measurement: "≤ 100 nM"
- compound: "CCOc1cncc(-c2cnc(C(=O)N[C@@H](CN3C[C@@H]4C[C@H]3CO4)c3cc(NS(=O)(=O)C4CC4)ccn3)s2)n1 (single isomer, unassigned)"
  subject.of.test: "CTP synthase 1 (Homo sapiens, UniProt P17812)"
  measured.endpoint: "IC50"
  recorded.measurement: "< 100 nM"
- compound: "CCOc1cncc(-c2sc(C(=O)N[C@@H](CC)c3cc(NS(=O)(=O)C4CC4)ccn3)nc2C)n1"
  subject.of.test: "CTP synthase 1 (Homo sapiens, UniProt P17812)"
  measured.endpoint: "IC50"
  recorded.measurement: "< 100 nM"
- compound: "CCOc1cncc(-c2sc(C(=O)NC(CC)c3cc(NS(=O)(=O)C4CC4)ccn3)nc2C)n1 (stereo not drawn)"
  subject.of.test: "CTP synthase 1 (Homo sapiens, UniProt P17812)"
  measured.endpoint: "IC50"
  recorded.measurement: "< 100 nM"
